Read-out: C-C motif chemokine 2 (Homo sapiens)
Experiment: BSK_KF3CT_MCP1: BioMAP Diversity Plus: KF3CT Assay for Monocyte Chemoattractant Protein 1 (MCP1/CCL2) Biomarker Activity (AID 2283073)
Conditions: primary human keratinocytes with fibroblasts; actives raise or lower the signal
The source made the active and inactive calls. Rule for the calls: active = hit-call score of the fitted dose curve at least 0.9, where 1 is the maximum; inactive = score below 0.9.
Please answer using one outcome listed in Y = active, N = inactive

Solved cases below.
N#[N+]c1ccc2c(S(=O)(=O)[O-])cccc2c1O : N
CCCCC(CC)COC(=O)c1ccccc1O (stereo not drawn) : N
c1ccc2c(c1)ccc1cc3c(ccc4ccccc43)cc12 : N
CC1OC1C1CCC2(C)OC2C1 (stereo not drawn) : N
O=C(Cl)c1cc(C(=O)Cl)cc(C(=O)Cl)c1 : Y

Request: I would be grateful if you could indicate the recorded call for "C=C[Si](OC(C)=O)(OC(C)=O)OC(C)=O" .
Response: N

Request: I would be grateful if you could indicate the recorded call for "O=c1c2ccccc2oc2ccccc12" .
Response: N

Request: I would be grateful if you could indicate the recorded call for CCCCC(CC)COCC1CO1 (stereo not drawn) .
Response: N
